biological target: IGF-1R (human cytoplasmic domain fused with GST) (Homo sapiens, UniProt P08069); construct: The human cytoplasmic domain of IGF-1R was cloned by fusion with glutathione S-transferase (GST); made in house; host or cells: SF21 insect cells (baculovirus, pFastBac-GST); experiment: Kinase IGF-1R test (Test A): inhibition of autophosphorylation of the enzyme, HTRF; type: biochemical; conditions: preincubation with enzyme 30 minutes; 120 μM ATP; read-out: Test A 30′ IC50
pIC50: −log10 of the molar value.
Value kind: pIC50

Guide cases for pIC50, answers given:
Molecule	Reported result
CC(C)(CO)c1ccc(N2C(=O)N(Cc3ccnc(Nc4cccnc4)c3)C(C)(C)C2=O)cc1 [Example 31N]	< 7.00
CC(C)(C)c1ccc(N2C(=O)N(Cc3ccnc(Nc4ccc(O)nc4)c3)C(C)(C)C2=O)cc1 [Example 31M]	7.00 to 8.00

# input for lookup
Challenge: Value lookup for pIC50; key = CC(C)(C)c1ccc(N2C(=O)N(Cc3ccnc(Nc4cccc(CN5CCCC5)c4)c3)C(C)(C)C2=O)cc1 [Example 31G]
Response given: 7.00 to 8.00

* * *

Measured pIC50, listed per entry.
biological target: IGF1R in MCF-7 cells (Homo sapiens, UniProt P08069); construct: endogenous in cells; experiment: Autophosphorylation of IGF-1R in MCF7 cells after stimulation with IGF-1 (Test B), ELISA; settings: compound added one hour before IGF1 stimulation (10 minutes)
Sequence (P08069 31-1367): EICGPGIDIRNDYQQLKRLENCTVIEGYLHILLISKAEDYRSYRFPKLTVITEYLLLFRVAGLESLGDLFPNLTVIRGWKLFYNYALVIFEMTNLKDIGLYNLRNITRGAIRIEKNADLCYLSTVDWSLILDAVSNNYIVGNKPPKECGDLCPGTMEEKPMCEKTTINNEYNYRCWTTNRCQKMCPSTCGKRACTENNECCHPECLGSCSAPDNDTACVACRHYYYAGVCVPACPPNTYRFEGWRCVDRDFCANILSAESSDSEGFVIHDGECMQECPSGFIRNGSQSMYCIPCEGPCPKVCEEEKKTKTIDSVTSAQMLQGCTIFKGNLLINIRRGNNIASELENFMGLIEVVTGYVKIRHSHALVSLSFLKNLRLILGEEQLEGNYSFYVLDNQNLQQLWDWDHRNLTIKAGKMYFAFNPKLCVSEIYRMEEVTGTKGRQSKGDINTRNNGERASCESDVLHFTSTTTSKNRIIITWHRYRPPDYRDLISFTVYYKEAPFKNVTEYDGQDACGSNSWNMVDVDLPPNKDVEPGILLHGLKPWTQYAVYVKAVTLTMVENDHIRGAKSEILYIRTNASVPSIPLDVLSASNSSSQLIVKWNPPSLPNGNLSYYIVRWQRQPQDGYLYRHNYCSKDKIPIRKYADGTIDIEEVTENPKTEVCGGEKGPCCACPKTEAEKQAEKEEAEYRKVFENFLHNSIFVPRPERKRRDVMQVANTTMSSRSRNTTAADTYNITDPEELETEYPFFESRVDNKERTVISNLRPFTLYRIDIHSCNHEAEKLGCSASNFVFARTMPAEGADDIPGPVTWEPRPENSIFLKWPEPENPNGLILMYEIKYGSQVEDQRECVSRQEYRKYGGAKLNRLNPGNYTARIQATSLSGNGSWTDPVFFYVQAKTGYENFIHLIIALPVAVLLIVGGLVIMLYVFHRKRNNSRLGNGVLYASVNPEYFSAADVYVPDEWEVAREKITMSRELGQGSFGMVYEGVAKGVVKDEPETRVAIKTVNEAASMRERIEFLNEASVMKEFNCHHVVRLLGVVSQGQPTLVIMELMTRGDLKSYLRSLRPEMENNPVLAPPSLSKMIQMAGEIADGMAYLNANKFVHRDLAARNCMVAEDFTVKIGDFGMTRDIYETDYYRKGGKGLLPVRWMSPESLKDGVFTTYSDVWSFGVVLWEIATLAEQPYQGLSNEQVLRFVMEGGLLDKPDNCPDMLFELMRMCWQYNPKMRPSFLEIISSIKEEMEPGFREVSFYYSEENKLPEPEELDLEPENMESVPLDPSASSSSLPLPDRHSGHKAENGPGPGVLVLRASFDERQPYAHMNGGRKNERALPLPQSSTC
pIC50: −log10 of the molar value.

Guide cases for pIC50, answers given:
Compound	pIC50
COC(=O)Nc1cc(CN2C(=O)N(c3ccc(C(C)(C)C)cc3)C(=O)C2(C)C)ccn1 [Example 31Q]	> 8.00
CC(C)(C)c1ccc(N2C(=O)N(Cc3ccnc(NC(=O)N4CCCC4)c3)C(C)(C)C2=O)cc1	> 8.00
CC(C)(C)c1ccc(N2C(=O)N(Cc3ccnc(Nc4ccc(Cl)nc4)c3)C(C)(C)C2=O)cc1 [Example 31L]	7.00 to 8.00
CC(C)(C)c1ccc(N2C(=O)N(Cc3ccnc(NC(N)=O)c3)C(C)(C)C2=O)cc1 [Example 31P]	7.00 to 8.00
CC(C)(C)c1ccc(N2C(=O)N(Cc3ccnc(Nc4ccc(CN5CCCC5)cc4)c3)C(C)(C)C2=O)cc1 [Example 31F]	7.00 to 8.00
CN(C)CC(=O)N1CC(C)(C)c2ccc(N3C(=O)N(Cc4ccnc(NC(=O)N(C)C)c4)C(C)(C)C3=O)cc21 [Example 31C]	7.00 to 8.00
CC(C)(C)c1ccc(N2C(=O)N(Cc3ccnc(Nc4cncnc4)n3)C(C)(C)C2=O)cc1	> 8.00
CC(C)NCC(=O)N1CC(C)(C)c2ccc(N3C(=O)N(Cc4ccnc(NC(=O)N(C)C)c4)C(C)(C)C3=O)cc21 [Example 31E]	7.00 to 8.00
CC(C)(C)c1ccc(N2C(=O)N(Cc3ccnc(NC(=O)Nc4cccnc4)c3)C(C)(C)C2=O)cc1 [Example 31O]	7.00 to 8.00

# input for lookup
Challenge: Value lookup for pIC50; key = `CC(C)(C)c1ccc(N2C(=O)N(Cc3ccnc(NC(=O)NC4CC4)c3)C(C)(C)C2=O)cc1`
Response given: 7.00 to 8.00

* * *

Molecular target: IGF-1R (human cytoplasmic domain fused with GST) (Homo sapiens)
Construct: The human cytoplasmic domain of IGF-1R was cloned by fusion with glutathione S-transferase (GST); made in house; host or cells: SF21 insect cells (baculovirus, pFastBac-GST)
Assay: Kinase IGF-1R test (Test A): inhibition of autophosphorylation of the enzyme, HTRF
Format: biochemical
Conditions: preincubation with enzyme 90 minutes; 120 μM ATP; read-out: Test A 90′ IC50
Method: A) Experimental Protocol for the Kinase IGF-1R Test: The inhibitory activity of the compounds on IGF1R is determined by measuring the inhibition of autophosphorylation of the enzyme using a time-resolved fluorescence test (HTRF). The human cytoplasmic domain of IGF-1R was cloned by fusion with glutathione S-transferase (GST) in the baculovirus expression vector pFastBac-GST. […] The specific long-lasting signal of XL-665 is measured in a GENios Pro TECAN plate counter. […]
Value kind: IC50

Compound	Reported result
CC(C)(C)c1ccc(N2C(=O)N(Cc3ccnc(Nc4cncnc4)n3)C(C)(C)C2=O)cc1	< 10 nM
CC(C)(C)c1ccc(N2C(=O)N(Cc3ccnc(Nc4cccc(CCN5CCCC5)c4)c3)C(C)(C)C2=O)cc1 [Example 31H]	< 10 nM
CC1(C)C(=O)N(c2ccc(OC(F)(F)F)c(NC(=O)[C@H](N)c3ccccc3)c2)C(=O)N1Cc1ccnc(Nc2cccnc2)c1	10 to 100 nM

Challenge: Value lookup for IC50; key = CC(C)(C)c1ccc(N2C(=O)N(Cc3ccnc(Nc4ccc(CN5CCCC5)cc4)c3)C(C)(C)C2=O)cc1 [Example 31F]
Response given: < 10 nM

Challenge: Value lookup for IC50; key = CC(C)(C)c1ccc(N2C(=O)N(Cc3ccnc(NC(N)=O)c3)C(C)(C)C2=O)cc1 [Example 31P]
Response given: < 10 nM

Challenge: Value lookup for IC50; key = `CC(C)(C)c1ccc(N2C(=O)N(Cc3ccnc(NC(=O)NC4CC4)c3)C(C)(C)C2=O)cc1`
Response given: 10 to 100 nM

Challenge: Value lookup for IC50; key = `CC(C)(C)c1ccc(N2C(=O)N(Cc3ccnc(NC(=O)NC4CCC4)c3)C(C)(C)C2=O)cc1`
Response given: 10 to 100 nM

Challenge: Value lookup for IC50; key = `CC1(C)CN(C(=O)CNC2CCCC2)c2cc(N3C(=O)N(Cc4ccnc(Nc5cccnc5)c4)C(C)(C)C3=O)ccc21`
Response given: 10 to 100 nM

Challenge: Value lookup for IC50; key = CC(C)(C)c1ccc(N2C(=O)N(Cc3ccnc(Nc4cccc(F)c4)c3)C(C)(C)C2=O)cc1 [Example 31I]
Response given: 10 to 100 nM

* * *

Measured IC50, listed per entry.
target: IGF-1R (human cytoplasmic domain fused with GST) (Homo sapiens); construct: The human cytoplasmic domain of IGF-1R was cloned by fusion with glutathione S-transferase (GST); made in house; host or cells: SF21 insect cells (baculovirus, pFastBac-GST); assay: Kinase IGF-1R test (Test A): inhibition of autophosphorylation of the enzyme, HTRF; format: biochemical; details: preincubation with enzyme 30 minutes; 120 μM ATP; read-out: Test A 30′ IC50

Molecule	IC50
CC(C)(C)c1ccc(N2C(=O)N(Cc3ccnc(NC(=O)NCCN4CCCC4)c3)C(C)(C)C2=O)cc1	10 to 100 nM
CC(C)(C)c1ccc(N2C(=O)N(Cc3ccnc(NC(=O)NC4CC4)c3)C(C)(C)C2=O)cc1	10 to 100 nM
CC(C)(C)c1ccc(N2C(=O)N(Cc3ccnc(NC(=O)N4CCCC4)c3)C(C)(C)C2=O)cc1	10 to 100 nM

# input for lookup
Challenge: Form field - read-out: IC50; system: IGF-1R (human cytoplasmic domain fused with GST) (Homo sapiens); submitted item: CC(C)(C)c1ccc(N2C(=O)N(Cc3ccnc(Nc4cccc(F)c4)c3)C(C)(C)C2=O)cc1 [Example 31I]
Response given: > 100 nM

* * *

target: IGF-1R (human cytoplasmic domain fused with GST) (Homo sapiens, UniProt P08069); construct: The human cytoplasmic domain of IGF-1R was cloned by fusion with glutathione S-transferase (GST); made in house; host or cells: SF21 insect cells (baculovirus, pFastBac-GST); assay: Kinase IGF-1R test (Test A): inhibition of autophosphorylation of the enzyme, HTRF; type: biochemical; details: preincubation with enzyme 90 minutes; 120 μM ATP; read-out: Test A 90′ IC50
pIC50: −log10 of the molar value.
Value kind: pIC50

Molecule	pIC50
COC(=O)Nc1cc(CN2C(=O)N(c3ccc(C(C)(C)C)cc3)C(=O)C2(C)C)ccn1 [Example 31Q]	> 8.00

Challenge: Value lookup for pIC50; key = CC(C)(C)c1ccc(N2C(=O)N(Cc3ccnc(NC(=O)N4CCOCC4)c3)C(C)(C)C2=O)cc1 [Example 20]
Response given: > 8.00

Challenge: Value lookup for pIC50; key = CC(C)(C)c1ccc(N2C(=O)N(Cc3ccnc(Nc4cncc(F)c4)c3)C(C)(C)C2=O)cc1 [Example 31A]
Response given: 7.00 to 8.00

Challenge: Value lookup for pIC50; key = CCCCN(C)C(=O)Nc1cc(CN2C(=O)N(c3ccc(C(C)(C)C)cc3)C(=O)C2(C)C)ccn1 [Example 27]
Response given: 7.00 to 8.00

Challenge: Value lookup for pIC50; key = CC(C)(C)c1ccc(N2C(=O)N(Cc3ccnc(Nc4ccc(O)nc4)c3)C(C)(C)C2=O)cc1 [Example 31M]
Response given: 7.00 to 8.00

Challenge: Value lookup for pIC50; key = CC(C)(CO)c1ccc(N2C(=O)N(Cc3ccnc(Nc4cccnc4)c3)C(C)(C)C2=O)cc1 [Example 31N]
Response given: 7.00 to 8.00

Challenge: Value lookup for pIC50; key = CC(C)(C)c1ccc(N2C(=O)N(Cc3ccnc(Nc4cncnc4)c3)C(C)(C)C2=O)cc1 [Example 7]
Response given: 7.00 to 8.00

Challenge: Value lookup for pIC50; key = CC(C)(C)c1ccc(N2C(=O)N(Cc3ccnc(Nc4cccnc4)n3)C(C)(C)C2=O)cc1 [Example 1]
Response given: > 8.00
